Each recorded value in this set is attributed to patent US20060172935A1.

- assayedTarget: T1, mouse PK2 receptor (mouse, UniProt Q8K458 1-381)
- T1 construct: G-protein coupled receptor; also called PKR2; mouse PKR2
- T1 sequence (Q8K458 whole entry): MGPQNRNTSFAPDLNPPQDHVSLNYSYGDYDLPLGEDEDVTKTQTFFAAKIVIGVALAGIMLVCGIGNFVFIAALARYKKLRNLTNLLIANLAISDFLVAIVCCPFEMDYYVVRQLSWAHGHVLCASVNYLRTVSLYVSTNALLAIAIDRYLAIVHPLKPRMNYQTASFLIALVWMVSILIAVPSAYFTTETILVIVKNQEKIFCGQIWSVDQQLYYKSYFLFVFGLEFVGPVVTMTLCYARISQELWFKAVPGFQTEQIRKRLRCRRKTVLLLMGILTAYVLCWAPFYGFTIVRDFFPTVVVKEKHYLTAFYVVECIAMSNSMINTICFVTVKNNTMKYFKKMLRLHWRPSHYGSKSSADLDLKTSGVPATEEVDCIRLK
- assaySummary: PK2 receptor binding assay with radioiodinated ligand (FIG. 11)
parameter: Kd

input: Which Kd value belongs to 125I-human PK2 (iodinated human prokineticin 2) (ligand, radioiodinated with 125I (residue not stated for this assay), also called iodinated PK2) AVITGACDKDSQCGGGMCCAVSIWVKSIRICTPMGKLGDSCHPLTRKVPFFGRRMHHTCPCLPGLACLRTSFNRFICLAQK ?
output: ~1 nM
